These data points were gathered from patent US20220204603A1.

Biological target: T1, biotinylated human Ang2 protein (human, UniProt O15123 19-496, limits assumed, biotinylated (sites not given))
T1 construct: also called hAng2
T1 sequence (looked up): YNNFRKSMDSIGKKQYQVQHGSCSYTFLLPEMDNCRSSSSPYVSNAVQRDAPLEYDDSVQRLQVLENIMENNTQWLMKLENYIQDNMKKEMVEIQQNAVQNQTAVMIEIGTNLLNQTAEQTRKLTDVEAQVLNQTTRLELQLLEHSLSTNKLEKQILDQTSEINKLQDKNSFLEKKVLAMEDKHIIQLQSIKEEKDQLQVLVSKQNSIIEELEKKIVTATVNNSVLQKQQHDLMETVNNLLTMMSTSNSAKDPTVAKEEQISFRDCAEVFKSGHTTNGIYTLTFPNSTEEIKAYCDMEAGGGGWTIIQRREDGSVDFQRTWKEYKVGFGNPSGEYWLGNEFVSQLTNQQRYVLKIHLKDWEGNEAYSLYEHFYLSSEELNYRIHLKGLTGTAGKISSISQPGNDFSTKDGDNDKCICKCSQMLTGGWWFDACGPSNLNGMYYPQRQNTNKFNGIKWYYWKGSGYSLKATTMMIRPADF
Assay: competition ELISA: antibody preincubated with biotinylated hAng2, binding to coated integrin α5/β1

>  <binder>
No. 8 anti-Ang2 antibody (IgG) (antibody, V domains shown, IgG form: VH cloned into Invivogen pfusess-hchg1, VL into Invivogen pfuse2ss-hclk; also called 3A10) VH: QVQLVESGGGLVKPGGSLRLSCAASGFTFSSYSMNWVRQAPGKGLEWVSSISASDGATYYADSVRGRFTISRDNSRSTLYLQMNSLRAEDTAVYYCAKILAGYSGPMGGMDVWGQGTTVTVSS VL: DIQMTQSPSSLSASVGDRVTITCRASRDISNYLAWYQQKPGKAPKSLIYGASNLQSGVSSQFSGSGSGTDFTLTINSLQPEDSATYYCQQYYSYPLTFGGGTKVDIKR

>  <IC50>
1.89 nM

$$$$
>  <binder>
No. 46 anti-Ang2 antibody (IgG) (antibody, V domains shown, IgG form: VH cloned into Invivogen pfusess-hchg1, VL into Invivogen pfuse2ss-hclk; also called 3C6) VH: QVQLVESGGGLVQPGRSLRLSCAASGFTFDDCAMHWVRQAPGKGLEWVSGISGNSKNVAYADSVKGRFSISRDDAKNSLYLQMNSLRAEDTAVYYCARDPAYSQFDYWGQGTLITVSS VL: QSALTQPPSLSATPGQRVTISCSGSSSNVGGYPVNWYQQVPGAAPKLLMYTDYKRPSGVPDRFFGSKSGTSASLAISGLQSEDEADYYCATWDDNLNGYVFGTGTKVTVLG

>  <IC50>
1.9 nM

$$$$
>  <binder>
No. 3 anti-Ang2 antibody (IgG) (antibody, V domains shown, IgG form: VH cloned into Invivogen pfusess-hchg1 (heavy chain constant region), VL into Invivogen pfuse2ss-hclk (light chain constant region); Expressed in Expi293F, purified on Protein A; also called 1D10) VH: QMQLVQSGGGLVQPGRSLKLSCAASGFSFDDYAMHWVRQAPGKGLEWVATIKDDGSQTYYVDSVKGRFTISRDNAKSSLFLQMNSLRAEDTAVYYCTTEGLMNGLHFDMWGQGTMVTVSS VL: LVLTQPPSVSGAPGQGVTISCTGSSSNIGAGYDVHWYQQFPGTAPKLLISGNNNRPSGLPDRFSGSKSGTSASLAITGLQAEDEADYYCQSYDSRLGVVFGGGTKLTVLG

>  <IC50>
1.53 nM

$$$$
>  <binder>
No. 4 anti-Ang2 antibody (IgG) (antibody, V domains shown, IgG form: VH cloned into Invivogen pfusess-hchg1, VL into Invivogen pfuse2ss-hclk; also called 2D8) VH: QVQLVESGAEVKRPGESLRISCKTSGYSFTSYWIHWVRQMPGKELEWMGSIYPGNSDTRYSPSFQGHVTISADSSSSTAYLQWSSLKASDTAMYYCTTEGLMNGLHFDMWGQGTMVTVSS VL: DIVMTQTPLSLPVTPGEPASISCRSSQSLLHSLGDNYLDWYLQKPGQSPQLLIYLGSKRAAGVPDRFSGSGSGTDFTLKISRVEAEDVGVYYCMQSLQTPPYTFGQGTKLEIKR

>  <IC50>
1.57 nM

$$$$
